# target under test: SIK1 (Homo sapiens, UniProt P57059)
# Construct: purchased Carna Biosciences 02-131
# Sequence (P57059 whole entry): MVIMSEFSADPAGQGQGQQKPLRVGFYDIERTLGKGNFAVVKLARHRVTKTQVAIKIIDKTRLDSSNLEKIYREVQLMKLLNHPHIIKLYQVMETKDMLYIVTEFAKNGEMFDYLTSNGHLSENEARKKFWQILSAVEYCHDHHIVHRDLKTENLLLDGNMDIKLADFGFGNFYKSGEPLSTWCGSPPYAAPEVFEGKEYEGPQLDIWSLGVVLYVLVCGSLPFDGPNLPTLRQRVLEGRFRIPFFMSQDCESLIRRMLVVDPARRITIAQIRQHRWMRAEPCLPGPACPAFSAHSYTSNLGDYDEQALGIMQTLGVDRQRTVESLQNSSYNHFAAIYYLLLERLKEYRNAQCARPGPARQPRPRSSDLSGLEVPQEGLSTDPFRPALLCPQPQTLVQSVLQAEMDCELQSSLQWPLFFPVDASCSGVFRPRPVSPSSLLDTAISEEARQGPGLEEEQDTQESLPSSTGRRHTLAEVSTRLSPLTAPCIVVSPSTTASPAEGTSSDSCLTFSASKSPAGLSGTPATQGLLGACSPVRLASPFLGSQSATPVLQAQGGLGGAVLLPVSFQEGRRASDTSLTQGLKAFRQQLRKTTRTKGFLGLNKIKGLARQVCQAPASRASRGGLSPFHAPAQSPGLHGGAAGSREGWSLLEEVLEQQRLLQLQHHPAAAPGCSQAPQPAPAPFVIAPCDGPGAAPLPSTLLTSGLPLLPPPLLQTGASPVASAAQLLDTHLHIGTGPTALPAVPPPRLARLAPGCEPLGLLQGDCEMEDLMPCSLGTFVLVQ
# assay: biochemical
# conditions used: 33P radioactive SIK kinase assay, AMARA peptide, 10 μM ATP; read-out: SIK1 IC50
reported metric: IC50

Below: 10 compounds and their reported IC50.
- compound: "COc1cc(-n2cnc3cc(-c4cnn(C)c4)ccc32)cc(OC)c1C(=O)N[C@@H](C)C(F)(F)F [compound 80]"
  target under test: "SIK1 (Homo sapiens, UniProt P57059)"
  IC50: "10 to 100 nM"
- compound: "COc1cc(-n2cnc3cc(-c4cnn(C)c4)ccc32)cc(OC)c1C(=O)N1C(C)CC1(C)C (stereo not drawn) [compound 189]"
  target under test: "SIK1 (Homo sapiens, UniProt P57059)"
  IC50: "> 500 nM"
- compound: "COc1cc(-c2cnc3cc(-c4cc(C)no4)ccn23)cc(OC)c1C(=O)N[C@H](C)C(F)(F)F [compound 223]"
  target under test: "SIK1 (Homo sapiens, UniProt P57059)"
  IC50: "10 to 100 nM"
- compound: "COc1cc(-n2cnc3cc(-c4cnn(C)c4)ccc32)cc(OC(C)C)c1C(=O)NC1CC1 [Cpd 119]"
  target under test: "SIK1 (Homo sapiens, UniProt P57059)"
  IC50: "100 to 500 nM"
- compound: "CCC1(O)CN(C(=O)c2c(OC)cc(-n3cnc4cc(-c5cnn(C)c5)ccc43)cc2OC)C1 [compound 218]"
  target under test: "SIK1 (Homo sapiens, UniProt P57059)"
  IC50: "10 to 100 nM"
- compound: "COc1cc(-n2cnc3cc(-c4cnccn4)ccc32)cc(OC)c1C(=O)NCC(F)(F)F [compound 128]"
  target under test: "SIK1 (Homo sapiens, UniProt P57059)"
  IC50: "> 500 nM"
- compound: "COc1cc(-n2cnc3cc(-c4cnn(C)c4)ccc32)cc(OC)c1C(=O)NCCCO [compound 63]"
  target under test: "SIK1 (Homo sapiens, UniProt P57059)"
  IC50: "100 to 500 nM"
- compound: "COc1cc(-n2cnc3cc(-c4nnc(C)n4C)ccc32)cc(OC)c1C(=O)NCC(F)(F)F [Cpd 168]"
  target under test: "SIK1 (Homo sapiens, UniProt P57059)"
  IC50: "> 500 nM"
- compound: "COc1cc(-n2cnc3cc(-c4cnn(C)c4)ccc32)cc(OC)c1C(=O)N1CC(N(C)C)C1 [compound 185]"
  target under test: "SIK1 (Homo sapiens, UniProt P57059)"
  IC50: "100 to 500 nM"
- compound: "COc1cc(-n2cnc3cc(-c4cnn(C)c4)ccc32)cc(OC)c1C(=O)N1C(C)CC1C (stereo not drawn) [compound 181]"
  target under test: "SIK1 (Homo sapiens, UniProt P57059)"
  IC50: "> 500 nM"

# return recorded IC50 for input COC(=O)CCCn1cc(-c2ccn3c(-c4cc(OC)c(C(=O)NCC(F)(F)F)c(OC)c4)cnc3c2)cn1 [compound 256]
0.01 to 10 nM

Return IC50 (reported value) for this compound: COc1cc(-n2cnc3cc(-c4cnn(C)c4)ccc32)cc(OC)c1C(=O)NC1CCC[C@@H]1O (stereo in doubt) [compound 141]
10 to 100 nM

Report IC50 for CCN1Cc2cc(-c3cnc4cc(-c5cnn(C)c5)ccn34)cc(OC)c2C1=O [compound 176]
10 to 100 nM

Provide only the value of recorded IC50 for COc1cc(-c2cnc3cc(-c4cnn(CC(=O)OC(C)(C)C)c4)ccn23)cc(OC)c1C(=O)NCC(F)(F)F [Cpd 229]
0.01 to 10 nM

For the compound COc1cc(-n2cnc3cc(-c4cnn(C)c4)ccc32)cc(OC)c1C(=O)N[C@@H]1CCC[C@H]1O [compound 143] , give its measured IC50 value.
100 to 500 nM

Retrieve IC50 measured for COc1cc(-n2cnc3cc(-c4cnn(C)c4)ccc32)cc(OC)c1C(=O)NCc1ccccn1 [compound 62] and print it.
100 to 500 nM

Retrieve IC50 measured for CCOC(=O)C(C)n1cc(-c2ccn3c(-c4cc(OC)c(C(=O)NCC(F)(F)F)c(OC)c4)cnc3c2)cn1 (stereo not drawn) [compound 263] and print it.
0.01 to 10 nM

Hello, please tell me recorded IC50 for this one: COc1cc(-n2cnc3cc(-c4cnn(C)c4)ccc32)cc(OC)c1C(=O)N1CCC(F)CC1 [compound 197]
> 500 nM

---

Each entry below lists one item and its recorded IC50 value.
# target under test: SIK2 (Homo sapiens, UniProt Q9H0K1)
# Construct: purchased ThermoFisher Scientific PV4792
# Sequence (Q9H0K1 whole entry): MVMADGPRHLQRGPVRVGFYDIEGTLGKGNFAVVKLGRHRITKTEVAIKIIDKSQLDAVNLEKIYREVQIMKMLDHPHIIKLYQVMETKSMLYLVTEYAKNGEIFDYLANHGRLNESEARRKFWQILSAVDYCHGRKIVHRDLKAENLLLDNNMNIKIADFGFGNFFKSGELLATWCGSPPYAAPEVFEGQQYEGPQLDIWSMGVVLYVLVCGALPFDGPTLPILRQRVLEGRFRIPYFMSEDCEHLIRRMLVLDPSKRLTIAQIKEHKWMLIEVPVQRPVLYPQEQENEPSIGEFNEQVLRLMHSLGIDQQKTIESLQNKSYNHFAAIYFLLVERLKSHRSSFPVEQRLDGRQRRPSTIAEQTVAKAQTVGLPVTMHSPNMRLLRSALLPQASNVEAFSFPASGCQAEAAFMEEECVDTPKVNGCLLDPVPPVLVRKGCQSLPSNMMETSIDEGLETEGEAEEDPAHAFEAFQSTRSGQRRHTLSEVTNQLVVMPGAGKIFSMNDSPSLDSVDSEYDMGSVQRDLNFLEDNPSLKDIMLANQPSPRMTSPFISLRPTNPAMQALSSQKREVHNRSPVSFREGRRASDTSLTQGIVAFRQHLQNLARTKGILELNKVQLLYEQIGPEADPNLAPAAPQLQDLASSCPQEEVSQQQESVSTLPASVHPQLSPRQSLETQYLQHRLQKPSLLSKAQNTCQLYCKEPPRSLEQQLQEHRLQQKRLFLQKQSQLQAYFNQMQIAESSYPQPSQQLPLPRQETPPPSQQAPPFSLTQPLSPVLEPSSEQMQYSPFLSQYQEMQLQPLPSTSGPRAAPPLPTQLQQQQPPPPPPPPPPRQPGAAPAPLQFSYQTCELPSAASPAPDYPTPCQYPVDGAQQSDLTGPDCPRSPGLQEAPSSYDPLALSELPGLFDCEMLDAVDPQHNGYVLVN
# assay: biochemical
# conditions used: 33P radioactive SIK kinase assay, AMARA peptide, 10 μM ATP

Solved cases (3 shown):
- compound: "COc1cc(-c2cnc3cc(-c4cn[nH]c4)ccn23)cc(OC)c1C(=O)N[C@H](C)C(F)(F)F"
  observed: "0.01 to 10 nM"
- compound: "COc1cc(-n2cnc3cc(-c4cncn4C)ccc32)cc(OC)c1C(=O)NCC(F)(F)F"
  observed: "100 to 500 nM"
- compound: "COc1cc(-n2cnc3cc(-c4cnn(C)c4)ccc32)cc(OC)c1C(=O)NC1CCC[C@@H]1O (stereo in doubt)"
  observed: "10 to 100 nM"

Now look at this entry.
Determine its reported IC50: `CCNC(=O)c1c(OC)cc(-c2cnc3cc(-c4ccnnc4)ccn23)cc1OC(F)F`
10 to 100 nM

---

Measured IC50 of individual entries
# target under test: SIK1 (Homo sapiens, UniProt P57059)
# Construct: purchased Carna Biosciences 02-131
# assay: biochemical
# conditions used: 33P radioactive SIK kinase assay, AMARA peptide, 10 μM ATP; read-out: SIK1 IC50

- compound: "COc1cc(-c2cnc3cc(-c4cnn(C)c4)ccn23)cc(OC)c1C(=O)NC(C(C)C)C(F)(F)F (stereo not shown)"
  reported metric: "IC50"
  observed: "10 to 100 nM"
- compound: "COc1cc(-n2cnc3cc(-c4cnn(C)c4)ccc32)cc(OC)c1C(=O)Nc1cnc(C)cn1"
  reported metric: "IC50"
  observed: "100 to 500 nM"
- compound: "COc1cc(-n2cnc3cc(-c4cnn(C)c4)ccc32)cc(OC)c1C(=O)N1CCC1C (stereo not shown)"
  reported metric: "IC50"
  observed: "> 500 nM"

Supply IC50 value. Item: COc1cc(-n2cnc3cc(-c4cnn(C)c4)ccc32)cc(OC)c1C(=O)NC1CCCC[C@H]1N (stereo in doubt)
0.01 to 10 nM

---

# target under test: SIK3 (Homo sapiens)
# Construct: purchased SignalChem S12-11G-100
# Sequence (Q9Y2K2 whole entry): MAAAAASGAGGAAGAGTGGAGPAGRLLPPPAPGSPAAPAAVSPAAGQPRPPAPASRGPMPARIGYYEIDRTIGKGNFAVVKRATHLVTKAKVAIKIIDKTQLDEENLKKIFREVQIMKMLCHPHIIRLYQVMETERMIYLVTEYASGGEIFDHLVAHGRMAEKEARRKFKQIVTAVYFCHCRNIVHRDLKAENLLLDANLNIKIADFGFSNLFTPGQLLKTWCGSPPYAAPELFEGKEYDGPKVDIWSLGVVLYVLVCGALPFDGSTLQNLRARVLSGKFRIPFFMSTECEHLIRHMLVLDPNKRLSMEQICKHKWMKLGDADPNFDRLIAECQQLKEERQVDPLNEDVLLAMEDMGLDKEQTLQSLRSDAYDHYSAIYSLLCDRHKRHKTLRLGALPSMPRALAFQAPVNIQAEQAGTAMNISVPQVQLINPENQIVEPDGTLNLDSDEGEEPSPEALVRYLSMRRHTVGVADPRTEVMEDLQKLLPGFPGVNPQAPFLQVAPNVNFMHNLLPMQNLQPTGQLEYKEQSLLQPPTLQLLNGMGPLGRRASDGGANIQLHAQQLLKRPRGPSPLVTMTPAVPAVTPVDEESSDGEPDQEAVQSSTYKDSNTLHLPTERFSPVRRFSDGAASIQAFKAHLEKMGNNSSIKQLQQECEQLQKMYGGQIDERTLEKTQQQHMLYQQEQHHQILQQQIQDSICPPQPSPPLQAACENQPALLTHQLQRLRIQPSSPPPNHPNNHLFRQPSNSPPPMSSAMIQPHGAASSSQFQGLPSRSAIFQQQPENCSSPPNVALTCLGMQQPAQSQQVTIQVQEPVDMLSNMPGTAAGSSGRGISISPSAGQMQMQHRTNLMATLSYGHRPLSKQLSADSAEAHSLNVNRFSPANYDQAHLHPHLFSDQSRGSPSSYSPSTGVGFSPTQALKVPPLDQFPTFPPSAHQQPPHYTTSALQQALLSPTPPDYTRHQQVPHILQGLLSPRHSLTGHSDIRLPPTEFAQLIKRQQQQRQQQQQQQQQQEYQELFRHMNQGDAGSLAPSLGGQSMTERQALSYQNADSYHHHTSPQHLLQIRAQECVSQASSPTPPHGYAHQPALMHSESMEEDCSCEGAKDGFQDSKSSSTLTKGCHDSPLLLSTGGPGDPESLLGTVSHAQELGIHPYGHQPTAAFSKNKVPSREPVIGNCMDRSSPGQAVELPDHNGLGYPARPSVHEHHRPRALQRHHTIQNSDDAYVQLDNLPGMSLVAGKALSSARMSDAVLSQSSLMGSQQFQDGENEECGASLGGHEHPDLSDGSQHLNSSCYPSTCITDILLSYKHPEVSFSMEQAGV
# assay: biochemical
# conditions used: ADP-Glo SIK kinase assay
pIC50: −log10 of the molar value.
Quick list: pIC50 per entry.

- compound: "COc1cc(-c2cnc3cc(-c4ccc(C#N)nn4)ccn23)cc(OC(F)F)c1C(=O)NC1CC1"
  pIC50: "8.00 to 11.00"
- compound: "CCN1Cc2cc(-n3cnc4cc(-c5cnn(C)c5)ccc43)cc(F)c2C1=O"
  pIC50: "6.30 to 7.00"
- compound: "COc1cc(-c2cnc3cc(-c4ccc(C)nn4)ccn23)cc(OC)c1C(=O)NCC(F)(F)F"
  pIC50: "8.00 to 11.00"
- compound: "COc1cc(-c2cnc3cc(-c4cnn(C)c4)ccn23)cc2c1C(=O)N(C1CC1)CC2"
  pIC50: "8.00 to 11.00"
- compound: "COc1cc(-c2cnc3cc(-c4cnn(C)c4)ccn23)cc(OC)c1C(=O)NCC(F)(F)F"
  pIC50: "8.00 to 11.00"
- compound: "COc1cc(-n2cnc3cc(-c4ccnc(N5CCN(C)CC5)c4)ccc32)cc(OC)c1C(=O)NCC(F)(F)F"
  pIC50: "8.00 to 11.00"
- compound: "COc1cc(-c2cnc3cc(-c4cnn(C)c4)c(OC(C)C(=O)O)cn23)cc(OC(F)F)c1C(=O)NC1CC1 (stereo not drawn)"
  pIC50: "7.00 to 8.00"
- compound: "CCOC(=O)C(C(C)C)n1cc(-c2ccn3c(-c4cc(OC)c(C(=O)NCC(F)(F)F)c(OC)c4)cnc3c2)cn1 (stereo not drawn)"
  pIC50: "8.00 to 11.00"
- compound: "COc1cc(-c2cnc3cc(-c4cn(C)cn4)ccn23)cc(OC)c1C(=O)N[C@@H](C)C(F)(F)F"
  pIC50: "7.00 to 8.00"
- compound: "CCOC(=O)C(C)Cn1cc(-c2ccn3c(-c4cc(OC)c(C(=O)NCC(F)(F)F)c(OC)c4)cnc3c2)cn1 (stereo not drawn)"
  pIC50: "8.00 to 11.00"

--- query ---
State, in one line, measured pIC50 of CCOC(=O)C(C)Oc1cn2c(-c3cc(OC)c(C(=O)NC4CC4)c(OC(F)F)c3)cnc2cc1-c1cnn(C)c1 (stereo not drawn)
7.00 to 8.00
